meta.source: ChEMBL document CHEMBL3098058

For each entry below, report its permeability value.
# Procedure text: Blood brain permeability of the compound at donor and acceptor pH 7.4 by PAMPA
# Type: ADME
Write the figure, then the unit, nothing else.

Here is how some compounds turned out for permeability.
COc1cccc(OC)c1-c1nc(C(=O)N[C@@H](CC(C)C)C(=O)O)cn1-c1ccnc2cc(Cl)ccc12	1.2 ×10⁻⁶ cm/s
COc1cccc(OC)c1-c1nc(C(=O)N[C@@H](CC(C)C)C(=O)O)cn1-c1cccc2ccccc12	1.1 ×10⁻⁶ cm/s

Here is another compound to look at.
Incoming: Consider the compound COc1cccc(OC)c1-c1cc(C(=O)N[C@@H](CC(C)C)C(=O)O)nn1-c1ccnc2cc(Cl)ccc12 and give its measured permeability.
Outgoing: 4.8 ×10⁻⁶ cm/s

---

# System name: Neurotensin receptor type 1 (Homo sapiens, UniProt P30989)
# Sequence (P30989 whole entry): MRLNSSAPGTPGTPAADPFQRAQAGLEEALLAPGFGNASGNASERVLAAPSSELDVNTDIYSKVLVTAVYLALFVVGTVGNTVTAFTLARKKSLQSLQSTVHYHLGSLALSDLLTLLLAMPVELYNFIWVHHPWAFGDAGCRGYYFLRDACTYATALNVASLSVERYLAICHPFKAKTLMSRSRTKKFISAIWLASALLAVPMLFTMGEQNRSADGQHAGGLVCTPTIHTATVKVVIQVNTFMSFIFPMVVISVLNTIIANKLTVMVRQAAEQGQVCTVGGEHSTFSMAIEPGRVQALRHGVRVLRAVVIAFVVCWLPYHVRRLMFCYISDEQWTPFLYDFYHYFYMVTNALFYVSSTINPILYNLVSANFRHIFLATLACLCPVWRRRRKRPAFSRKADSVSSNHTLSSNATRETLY
# Procedure text: Agonist activity at NTR1 (unknown origin) expressed in CHO cells assessed as Ca2+ mobilization by Fluo-4 NW dye-based fluorescence assay
# Format: functional, cell-based
Recorded endpoint: pEC50
Give bare numbers, as −log10 of the molar value.

Incoming: Entry COc1cccc(OC)c1-c1nc(C(=O)N[C@@H](CC(C)C)C(=O)O)cn1-c1ccnc2cc(Cl)ccc12 has what pEC50?
Outgoing: 6.53

---

# Procedure text: Permeability of the compound at donor pH 5.0 and acceptor pH 7.4 by PAMPA
# Format: ADME
Recorded endpoint: permeability (×10⁻⁶ cm/s)
Answers are plain numbers, in ×10⁻⁶ cm/s.

Example results:
COc1cccc(OC)c1-c1nc(C(=O)N[C@@H](CC(C)C)C(=O)O)cn1-c1cccc2ccccc12	953
COc1cccc(OC)c1-c1nc(C(=O)N[C@@H](CC(C)C)C(=O)O)cn1-c1ccnc2cc(Cl)ccc12	363

// next item, permeability requested
Incoming: Please look up its permeability: COc1cccc(OC)c1-c1cc(C(=O)N[C@@H](CC(C)C)C(=O)O)nn1-c1ccnc2cc(Cl)ccc12
Outgoing: 1270

---

# System name: Neurotensin receptor type 1 (Homo sapiens)
# Procedure text: Agonist activity at NTR1 in human U2OS cells after 1 hr by beta-arrestin GFP reporter gene assay relative to NT peptide
# Assay type: cell-based
Recorded endpoint: Emax (%)
Give bare numbers, in %.

Recorded Emax, per entry:
Cc1cccc(C)c1-c1nc(C(=O)N[C@@H](CC(C)C)C(=O)O)cn1-c1ccnc2cc(Cl)ccc12	78
COc1cccc(OC)c1-c1nc(C(=O)N[C@@H](CC(C)C)C(=O)O)cn1-c1ccnc2cc(Cl)ccc12	79
COc1cccc(OC)c1-c1nc(C(=O)N[C@@H](CC(C)C)C(=O)O)cn1-c1ccncc1	100
COc1cccc(OC)c1-c1nc(C(=O)N[C@@H](CC(C)C)C(=O)O)cn1-c1cccc2ccccc12	93

Now for another entry.
Incoming: Look at this compound and give its reported Emax. COc1cccc(OC)c1-c1nc(C(=O)NC2(C(=O)O)C3CC4CC(C3)CC2C4)cn1-c1ccnc2cc(Cl)ccc12 (stereo not given)
Outgoing: 100

---

Kindly state remaining at 3 h for each of the entries shown.
# Procedure text: Metabolic stability in mouse plasma assessed as compound remaining at 3 hrs
# Assay type: ADME, cell-free
# Assay setup: read-out: Stability
Numbers only, in %.

COc1cccc(OC)c1-c1cc(C(=O)N[C@@H](CC(C)C)C(=O)O)nn1-c1ccnc2cc(Cl)ccc12	70.7
COc1cccc(OC)c1-c1nc(C(=O)N[C@@H](CC(C)C)C(=O)O)cn1-c1cccc2ccccc12	76

Incoming: Fill in: remaining at 3 h of COc1cccc(OC)c1-c1nc(C(=O)N[C@@H](CC(C)C)C(=O)O)cn1-c1ccnc2cc(Cl)ccc12 is ___
Outgoing: 100
